# recombinant UMI read abundance (log10) values compiled below
Experiment: recombinant UMI read abundance after kanamycin selection (control-corrected) (log10(CPM+1)); higher = more efficient recombination; extreme values may be limits of the assay; sequences stand for … in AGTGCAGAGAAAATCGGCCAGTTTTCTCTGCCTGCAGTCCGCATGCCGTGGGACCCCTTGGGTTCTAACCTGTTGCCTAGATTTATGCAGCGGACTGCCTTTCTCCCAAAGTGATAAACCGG…AGGTTGGTTTCACT; site = the 11-nt donor;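 also: IS621 bridge recombinase in Escherichia coli cells against a fixed T5 target plasmid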
When you answer, write just the number.

CACGGCTCATGGACCGGTTTTCCCGGTAATCCGTATTTGTT (site CACGGCGCTAA) ... 0.0461
CAAGGTGCATGGACCGGTTTTCCCGGTAATCCGTATTTGAT (site CGAGGTGCTAT) ... 1.13
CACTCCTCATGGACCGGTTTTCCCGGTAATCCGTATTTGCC (site CACGCCTCTGG) ... 0.524
CCCCGTACATGGACCGGTTTTCCCGGTAATCCGTATTTGCT (site CTCCGTACTAG) ... 0.542
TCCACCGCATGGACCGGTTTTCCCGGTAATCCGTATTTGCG (site TCCACCTCTCG) ... 0.00739

Return reported recombinant UMI read abundance (log10); argument: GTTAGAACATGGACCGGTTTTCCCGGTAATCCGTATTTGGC (site GTTAGAACTGA)
0

Return reported recombinant UMI read abundance (log10); argument: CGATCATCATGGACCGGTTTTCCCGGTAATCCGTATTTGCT (site AGAGCATCTAG)
0

Return reported recombinant UMI read abundance (log10); argument: TAAATTCCATGGACCGGTTTTCCCGGTAATCCGTATTTGTA (site TAAATTCCTTA)
0.558

Return reported recombinant UMI read abundance (log10); argument: AACTTGGCATGGACCGGTTTTCCCGGTAATCCGTATTTGGA (site AACTTGGCTTC)
0.368

Return reported recombinant UMI read abundance (log10); argument: CGGATTGCATGGACCGGTTTTCCCGGTAATCCGTATTTGCT (site CGGATTGCTAG)
1.79

Return reported recombinant UMI read abundance (log10); argument: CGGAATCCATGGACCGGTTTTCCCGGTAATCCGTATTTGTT (site CGTAATCCTAT)
0

Return reported recombinant UMI read abundance (log10); argument: ATACATCCATGGACCGGTTTTCCCGGTAATCCGTATTTGAC (site AGACATCCTGT)
0

Where do the numbers come from? From the supplement of paper PMC11208160.
